Protocol text: inhibitors of TNFa-induced NFkB p65 translocation, primary screen, imaging, HUVEC, MLSMR starter and 10KST1 sets (AID 438);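 note: compound added about 3h40 before a 20 min TNFalpha stimulation; signal is the nuclear over cytoplasmic p65 intensity ratio per well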
Condition details: HUVEC TNFa-induced p65 nuclear translocation; at 2 µM, 0% TNFa-plus-vehicle, 100% no-TNFa wells
The source made the active and inactive calls.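 Rule for the calls: active = inhibition above 20% together with a positive visual image hit; inconclusive = visual image hit but inhibition not above 20%; inactive = no visual image hit.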
Allowed answers: 1.0 (active), 0.0 (inactive)

For orientation, consider the following solved cases.
>>> group("O=C(Nc1nnc(C2CCCC2)s1)C1CCN(S(=O)(=O)c2ccc(Cl)cc2)CC1")
0.0
>>> group("C1=CC2CC1CC2CN1CCN(c2ccccc2)CC1 (stereo not given)")
0.0
>>> group("COCCNC(=S)c1ccc(OC)cc1")
0.0

What call does the record list for COc1ccc2c(-c3cccnc3)cc(=O)[nH]c2c1 ?
0.0

Subsequent entry: CN(CC(=O)N1CCCCC1)S(=O)(=O)c1cccc2cccnc12
0.0

Subsequent entry: CC(=O)c1ccc(NC(=O)CCc2c(C)nc3ncnn3c2C)cc1
0.0

Subsequent entry: CCc1nn(CC(=O)NCCCN2CCc3ccccc3C2)c(=O)c2cc3sccc3n12
0.0

Subsequent entry: O=C(Nc1ccccc1)N(CCN1CCOCC1)Cc1ccccc1F
0.0

Subsequent entry: COC(=O)Cc1[nH]nc2c1C(C1C=CCCC1)C(C#N)=C(N)O2 (stereo not given)
0.0

Subsequent entry: CCC(=O)Nc1nn(C)c2nc3c(C)cccc3cc12
0.0

Subsequent entry: CC(Sc1n[nH]c(=O)[nH]c1=O)C(=O)OCc1ccccc1 (stereo not given)
0.0

Subsequent entry: CCOC(=O)c1ccc(NC(=O)CSc2nnc(COc3ccccc3)n2C)cc1
0.0

Subsequent entry: Cc1nc(-c2ccc(NC(=O)c3cccs3)cc2)cs1
0.0

Subsequent entry: CC1Oc2ccccc2N(CC(=O)NCc2cccs2)C1=O (stereo not given)
0.0

Subsequent entry: COC(=O)CCC(NC(=O)c1cc(-c2ccc3c(c2)OCCO3)oc1C)C(=O)OC (stereo not given)
1.0

Subsequent entry: O=C(Nc1nc(-c2ccccc2)cs1)C1CCCO1 (stereo not given)
0.0

Subsequent entry: CCn1c(=N)n(CC(=O)c2ccco2)c2ccccc21
0.0

Subsequent entry: Cc1ccc(OCC2Cn3c(nc4c3c(=O)n(C)c(=O)n4C)O2)cc1 (stereo not given)
0.0

Subsequent entry: Cc1ccc(Nc2nc(Oc3ccc(=O)[nH]n3)nc(N(C)C)n2)cc1
0.0

Subsequent entry: CC(=O)NC1(C(F)(F)F)NC(=O)N(CC(C)C)C1=O (stereo not given)
0.0

Subsequent entry: OCc1nc2ccccc2n1CCCOc1ccccc1
0.0

Subsequent entry: CC(=O)c1cccc(NC(=O)NCc2ccco2)c1
0.0

Subsequent entry: COc1ccccc1C(=O)Nc1nc2ccc(S(C)(=O)=O)cc2s1
0.0

Subsequent entry: O=C(Cn1c(=O)n(Cc2ccc3c(c2)OCO3)c(=O)c2ccccc21)N1CCCc2ccccc21
0.0

Subsequent entry: CC(C)[C@H](NC(=O)NCc1ccc(Cl)cc1)C(=O)O
0.0
